# target: Cytochrome P450 2C9 (Homo sapiens) (UniProt P11712)
# Sequence (P11712 whole entry, looked up): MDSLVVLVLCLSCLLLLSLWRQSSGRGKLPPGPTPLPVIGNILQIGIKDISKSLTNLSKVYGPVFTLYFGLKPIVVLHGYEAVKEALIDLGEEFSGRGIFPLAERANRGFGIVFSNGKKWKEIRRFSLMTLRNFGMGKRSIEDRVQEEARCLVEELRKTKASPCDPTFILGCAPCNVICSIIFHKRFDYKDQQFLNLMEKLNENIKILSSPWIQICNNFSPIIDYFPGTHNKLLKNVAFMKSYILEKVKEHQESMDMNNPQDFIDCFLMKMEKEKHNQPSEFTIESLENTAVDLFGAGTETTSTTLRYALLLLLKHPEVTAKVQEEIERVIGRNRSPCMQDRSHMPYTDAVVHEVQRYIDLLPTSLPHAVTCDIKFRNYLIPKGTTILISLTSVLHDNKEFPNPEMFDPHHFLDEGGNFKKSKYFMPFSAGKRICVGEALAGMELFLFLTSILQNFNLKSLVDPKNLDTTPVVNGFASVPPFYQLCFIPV
# methodSummary: Cytochrome P450 family 2 subfamily C member 9 (CYP2C9) small molecule antagonists: luciferase biochemical (cell-free) qHTS assay (AID 1645842); note: nearly all actives have a fitted effect of over 55% in size
# conditionContext: P450-Glo CYP2C9 enzyme assay, luciferin luminescence; series mostly up to 57.4 µM
Results filed as inconclusive are left out. Activity calls are given as the source filed them. Calls come from the whole dose curve; as a rule, active = well fitted inhibition curve with a large enough effect in the repeat runs; inconclusive = weak or mixed curves; inactive = no such curve, though single readings can be large or run the other way.
Answer with one of the outcomes YES = active, NO = inactive

Example entries begin here.
>>> df
                                   molecule  assignedclass
0  CO/N=C(/C(=O)N[C@@H]1C(=O)N2C(C(=O)[O-])=C(C[n+]3ccn4ncccc43)CS[C@H]12)c1nsc(N)n1             NO
1  COc1ccc(-n2nc(CCC(=O)N(C)O)cc2-c2ccc(Cl)cc2)cc1            YES
2  CCOC(=O)NNc1ccc(N(CC)CC(C)O)nn1 (stereo unspecified)             NO

// return assay outcome for C#CC(C)(CC)OC(=O)c1ccccc1C(=O)O (stereo unspecified)
NO

Entry "CCCC(=O)O[C@]1(C(=O)CC)CC[C@H]2[C@@H]3CCC4=CC(=O)CC[C@]4(C)[C@H]3[C@@H](O)C[C@@]21C" : call = ?
YES

Per the assay record, what outcome was assigned to "NS(=O)(=O)c1cc(C(=O)NN2C[C@H]3[C@H]4CCC(C4)[C@H]3C2)ccc1Cl" ?
NO

Could you please tell me the result logged for "CC(C)C(=O)Nc1cccc(C(F)(F)F)c1" in this assay?
NO

Dear all, I need the recorded test outcome for "O=C(O)Cn1cnnn1" , thank you.
NO

Can you look up the reported call for "CN(C)[C@@H]1C(=O)C(C(N)=O)=C(O)[C@@]2(O)C(=O)C3=C(O)c4c(O)cccc4C[C@H]3C[C@@H]12" for me?
NO

Hi, sorry to bother you, what did the test record for CC(C)CCCC(C)NCCC(C)C (stereo unspecified) ?
NO

Please indicate how the test categorized "COc1cc2c(cc1OC)C(=O)CC2" .
NO

###

# System: CASKI
# methodSummary: Primary qHTS to identify gynecologic anti-cancer compounds using libraries of approved drugs and bioactive compounds (AID 1345084); note: nearly all actives have a fitted effect of over 55% in size
# conditionContext: Gynecologic cancer cell panel viability, ATPlite luminescence, 48 h; series mostly up to 57.5 µM
Records with an inconclusive call do not appear. The source made the active and inactive calls. Calls follow the shape of the dose curve; as a rule, active = well fitted cell-killing curve with a large enough effect; inconclusive = small, poorly fitted or top-dose-only effect, or effect the other way; inactive = flat fitted curve, though single readings scatter.
measurementKind: outcome

Field: example entries. Status: answers known.
>>> print(df.to_string())
                                   compound  measurementkind  recordedmeasurement
0  CC(=O)O[C@@H]1CC2C3CCc4cc(OC(=O)c5ccccc5)ccc4C3CCC2(C)[C@H]1OC(C)=O (some centres undefined)          outcome             inactive
1  C[C@@H]1C[C@H]2[C@@H]3CCC4=CC(=O)C=C[C@]4(C)[C@@]3(F)[C@@H](O)C[C@]2(C)[C@@]1(O)C(=O)COC(=O)c1ccncc1          outcome             inactive
2                COC(=O)c1ccc(NC(C)=O)cc1OC          outcome             inactive
3     OC[C@]1(O)OC[C@@H](O)[C@H](O)[C@@H]1O          outcome             inactive
4   CC(C)OP(=O)(CP(=O)(OC(C)C)OC(C)C)OC(C)C          outcome             inactive

Please turn your attention to the following entry.
Name the reported outcome value associated with the compound "OCCCc1ccccc1"
inactive

###

# Test system: CAOV3
# methodSummary: Primary qHTS to identify gynecologic anti-cancer compounds using libraries of approved drugs and bioactive compounds (AID 1345084); note: nearly all actives have a fitted effect of over 55% in size
# conditionContext: Gynecologic cancer cell panel viability, ATPlite luminescence, 48 h; series mostly up to 57.5 µM
# Description: National Center for Advancing Translational Sciences [NCATS] Assay Overview: Chemotherapeutic drug responses vary from cancer to cancer and from patient to patient. […] ATPlite is a luminescence based assay reliant on the conversion of a luciferase substrate to light in the presence of ATP. As a cytotoxic compound will suppress growth and decrease the number of cells, the concentration of ATP will decrease, and less light signal will be detected in the well. […]
Results filed as inconclusive are left out. Active and inactive are the calls of the source. Calls follow the shape of the dose curve; as a rule, active = well fitted cell-killing curve with a large enough effect; inconclusive = small, poorly fitted or top-dose-only effect, or effect the other way; inactive = flat fitted curve, though single readings scatter.
Tick one outcome: True (active), False (inactive)

>>> print(df.to_string())
                                   compound  assignedclass
0  CC(CCc1ccc2c(c1)OCO2)NN (centres undefined)          False
1  CC(=O)/C=C/C=C1/C2CCC(C2)C1(C)C (centres undefined)          False
2  Nc1nc(=O)n([C@@H]2O[C@H](CO)[C@@H](O)[C@@H]2F)cc1I          False
3  CCCc1c2oc(C(=O)O)cc(=O)c2cc2c(=O)cc(C(=O)O)n(CC)c12          False
4                   CCc1cccc2c(CCO)c[nH]c12          False
5  O=C(OCC(COC(=O)c1cccnc1)(COC(=O)c1cccnc1)COC(=O)c1cccnc1)c1cccnc1          False

Query: recorded result category for CCCCC/C=C\C/C=C\CCCCCCCC(=O)NC(C)c1ccccc1 (centres undefined) in this test
False

Write down the call the test reported for this compound. Item: "O=C(O)[C@@H](O)[C@H](O)[C@H](O)[C@@H](O)C(=O)O"
False

Short answer needed: outcome of this test for "c1ccc2c(c1)CCc1ccccc1N2" ?
False

What call does the record list for "CCCCCCCCCCCCCCCCCCN(C)C" ?
False

Recorded test outcome, item "CCOC(=O)CN1CCCC1=O"
False

Dear colleague, could you share the recorded outcome for "Cc1cccc(N(C)C(=S)Oc2ccc3c(c2)CCC3)c1" when you have a moment?
False

Please state the recorded outcome for this compound: "O=C(O)c1cn(C2CC2)c2cc(Cl)c(F)cc2c1=O"
False

###

# target: Cytochrome P450 2C9 (Homo sapiens) (UniProt P11712)
# methodSummary: Cytochrome P450 family 2 subfamily C member 9 (CYP2C9) small molecule antagonists: luciferase biochemical (cell-free) qHTS assay (AID 1645842); note: nearly all actives have a fitted effect of over 55% in size
# conditionContext: P450-Glo CYP2C9 enzyme assay, luciferin luminescence; series mostly up to 57.4 µM
Records with an inconclusive call do not appear. Activity calls are given as the source filed them. Calls come from the whole dose curve; as a rule, active = well fitted inhibition curve with a large enough effect in the repeat runs; inconclusive = weak or mixed curves; inactive = no such curve, though single readings can be large or run the other way.
Log the outcome using a class from active, inactive

Reference set (8 entries):
compound	assignedClass
Cc1nc2n(c(=O)c1CCN1CCC(C(=O)c3ccc(F)cc3)CC1)CCS2	inactive
CCCN(CCC)C(=O)C(CCC(=O)OCCCN1CCN(CCOC(=O)Cc2c(C)n(C(=O)c3ccc(Cl)cc3)c3ccc(OC)cc23)CC1)NC(=O)c1ccccc1 (stereo unspecified)	active
Cc1ncc([N+](=O)[O-])n1C	inactive
Cc1cc(O)c(C)c(C)c1O	inactive
CC(C)=CCNc1ncnc2c1ncn2[C@@H]1O[C@H](CO)[C@@H](O)[C@H]1O	inactive
CCN(CC)CC(=O)Nc1c(C)cccc1C(=O)OC	inactive
O=C(CCOCCOCCOCCOCCC(=O)Nc1c(I)cc(I)c(C(=O)O)c1I)Nc1c(I)cc(I)c(C(=O)O)c1I	inactive
CCc1cc(S(=O)(=O)O)c2cc(C(C)C)cccc1-2	inactive

Hi team, can someone confirm the assay call for "CC1(C)OC(=O)Nc2ccc(Br)cc21" ?
inactive

For "CCc1cc2cc(OC)c(OC)cc2c(Cc2ccccc2)n1" , what call appears in the results of this test?
active

Per the assay record, what outcome was assigned to "O=C(O)c1cn(C2CC2)c2cc(Cl)c(F)cc2c1=O" ?
inactive

###

# Test system: MKL-1
# methodSummary: qHTS assay to identify novel small-molecules to repurpose for Merkel cell carcinoma treatment (AID 1296009); note: nearly all actives have a fitted effect of over 60% in size
# conditionContext: MCC and control cell lines, CellTiter-Glo viability, 72 h; series mostly up to 46 µM
Results filed as inconclusive are left out. Activity calls are given as the source filed them. Calls follow the shape of the dose curve; as a rule, active = well fitted inhibition curve with a large enough effect; inconclusive = small, poorly fitted or top-dose-only effect; inactive = flat fitted curve, though single readings scatter.
Allowed answers: y = active, n = inactive

Would you please look over these solved cases?
compound	target	assignedClass
CCCCCN(CCCOC)C(=O)C(CCC(=O)O)NC(=O)c1ccc(Cl)c(Cl)c1 (configuration not stated)	MKL-1	n
CCCCCCCCCCCCCCCCCCNC(=O)OC1CCN(C(=O)OC[C@H](COC(=O)N(Cc2cccc[n+]2CC)C(=O)c2ccccc2OC)OC)CC1	MKL-1	y
CCCN(CCC)C(=O)C(CCC(=O)OCCCN1CCN(CCOC(=O)Cc2c(C)n(C(=O)c3ccc(Cl)cc3)c3ccc(OC)cc23)CC1)NC(=O)c1ccccc1 (configuration not stated)	MKL-1	n
Cc1ccc2ccc(Cl)cc2n1	MKL-1	n

Which outcome was assigned to "CC(=O)[C@H]1CC[C@H]2[C@@H]3C=CC4=CC(=O)CC[C@@]4(C)[C@@H]3CC[C@]12C" in this test?
n

What call does the record list for CC(C)(C)NCC(O)COc1ccccc1OCC1CCCO1 (configuration not stated) ?
n
